Experiment: Clearance in Swiss albino mouse at 100 mg/kg, po
Assay type: ADME, organism-based
Conditions: in vivo
parameter.measured: CL/F (mL/min)
Answers are plain numbers, in mL/min.

// returns reported CL/F for input O=[N+]([O-])c1c(CS(=O)(=O)c2ccccc2)nc2c(C#CCCO)cc(Cl)cn12
0.0407

====

Test: Selectivity index, ratio of CC50 for human HepG2 cells to EC50 for Trypanosoma brucei brucei AnTat 1.9
Assay type: toxicity
Conditions: read-out: Selectivity Index
parameter.measured: selectivity ratio

molecule: O=[N+]([O-])c1c(CS(=O)(=O)c2ccccc2)nc2c(C#CCOc3ccccc3)cc(Cl)cn12
parameter.measured: selectivity ratio
value.measured: 52.5

Record selectivity ratio for all entries; do not skip any.
1. O=[N+]([O-])c1c(CS(=O)(=O)c2ccccc2)nc2c(Sc3ccc(Cl)cc3)cc(Cl)cn12
2. O=[N+]([O-])c1c(CS(=O)(=O)c2ccccc2)nc2c(C#CC3(O)CCCC3)cc(Cl)cn12

1: > 76.9; 2: > 313
